assay protocol: Time taken for peak plasma concentration at a dose of 20 mg/kg, oral route in dog(beagle) suspended in carboxymethyl cellulose (CMC)
Type: ADME, organism-based, Canis lupus familiaris
Design: dose 20 mg/kg, route oral
assay readout: Tmax (h)
Write down the numeric answer in h and omit the unit.

Look at this compound and give its reported Tmax. CN1CCN(c2c(F)cc3c(=O)c(C(=O)O)cn4c3c2SCC4)CC1 4

###

assay protocol: Time taken for peak plasma concentration at a dose of 200 mg/kg, oral route in human
Assay type: ADME, organism-based
Set-up: dose 200 mg/kg, route oral
assay readout: Tmax

Look at this compound and give its reported Tmax. CN1CCN(c2c(F)cc3c(=O)c(C(=O)O)cn4c3c2SCC4)CC1 4 h

###

assay protocol: Time taken for peak plasma concentration at a dose of 400 mg/kg, oral route in human
Format: ADME, organism-based
Parameters: dose 400 mg/kg, route oral
assay readout: Tmax (h)
Write down the numeric answer in h and omit the unit.

Look at this molecule and give its reported Tmax. CN1CCN(c2c(F)cc3c(=O)c(C(=O)O)cn4c3c2SCC4)CC1 2

###

assay protocol: Ratio of tissue (liver) levels to plasma levels after 15 hr of treatment
Type: ADME
assay readout: Kp at 15 h
Respond numerically, and do not add a unit to the figure.

Look at this compound and give its reported Kp at 15 h. CN1CCN(c2c(F)cc3c(=O)c(C(=O)O)cn4c3c2SCC4)CC1 3.7

###

assay protocol: Ratio of tissue (kidney) levels to plasma levels after 1 hr of treatment
Assay type: ADME
assay readout: Kp at 1 h
Respond numerically, and do not add a unit to the figure.

Look at this compound and give its reported Kp at 1 h. CN1CCN(c2c(F)cc3c(=O)c(C(=O)O)cn4c3c2SCC4)CC1 [RUFLOXACIN] 6

###

assay protocol: Urinary excretion for the compound was evaluated as percent dose excreted at 20 mg/kg oral dosage in dog (beagle);Range is between (8-10).
Format: ADME, organism-based, Canis lupus familiaris
Design: dose 20 mg/kg, route oral
experimental parameters: urine
assay readout: dose excreted (%)
Write down the numeric answer in % and omit the unit.

Look at this molecule and give its reported dose excreted. CN1CCN(c2c(F)cc3c(=O)c(C(=O)O)cn4c3c2SCC4)CC1 8

###

assay protocol: Tissue levels determined 1 hr after peroral dose of 50 mg/kg in kidney
experimental parameters: po
assay readout: concentration at 1 h (µg/mL)
Write down the numeric answer in µg/mL and omit the unit.

Look at this molecule and give its reported concentration at 1 h. CN1CCN(c2c(F)cc3c(=O)c(C(=O)O)cn4c3c2SCC4)CC1 61

###

assay protocol: Time taken for peak plasma concentration at a dose of 25 mg/kg, os route in rat suspended in carboxymethyl cellulose (CMC)
Type: ADME, organism-based
Parameters: dose 25 mg/kg
experimental parameters: po
assay readout: Tmax (h)
Write down the numeric answer in h and omit the unit.

Look at this molecule and give its reported Tmax. CN1CCN(c2c(F)cc3c(=O)c(C(=O)O)cn4c3c2SCC4)CC1 1

###

Tested on: Morganella morganii
assay protocol: In vitro antibacterial activity against clinical isolates of Proteus morganii 27 (gram negative) by agar dilution assay.
Format: functional
assay readout: MIC (µg/mL)
Write down the numeric answer in µg/mL and omit the unit.

Look at this molecule and give its reported MIC. O=C(O)c1cn2c3c(c(N4CCN(C(=O)C(F)(F)F)CC4)c(F)cc3c1=O)SCC2 1.56

Subsequent entry: CC1CN(c2c(F)cc3c(=O)c(C(=O)O)cn4c3c2SCC4)CC(C)N1 (centres undefined) 25

Subsequent entry: O=C(O)c1cn2c3c(cc(Cl)cc3c1=O)SCC2 6.25

Subsequent entry: CCn1cc(C(=O)O)c(=O)c2cc(F)c(N3CCNCC3)cc21 0.78

Subsequent entry: O=C(O)c1cn2c3c(c(N4CCNCC4)c(F)cc3c1=O)SCC2 1.56

Subsequent entry: CCn1cc(C(=O)O)c(=O)c2cnc(N3CCNCC3)nc21 3.12

Subsequent entry: O=C(O)c1cn2c3c(cc(N4CCNCC4)cc3c1=O)SCC2 50

Subsequent entry: O=C(O)c1cn2c3c(cc(F)cc3c1=O)SCC2 3.12

Subsequent entry: O=C(O)c1cn2c3c(cccc3c1=O)SCC2 12.5

Subsequent entry: O=C(O)c1cn2c3c(c(Cl)c(F)cc3c1=O)SCC2 6.25

Subsequent entry: O=C(O)c1cn2c3c(c(N4CCCC4)c(F)cc3c1=O)SCC2 3.12
